All figures here come from ChEMBL document CHEMBL3046774.

tested on: Leptinotarsa decemlineata; experiment: Antifeeding activity against Leptinotarsa decemlineata adults in compound treated wheat wafer disk assessed as total coefficient of deterrence by feeding deterrent activity test; format: functional
Would you mind labelling by FDI? At or over 100 is fulfilled, under is not fulfilled.

molecule	assigned_class
COc1cc2c(cc1OC)[C@@H]1OC(=O)C[C@]1(I)C(C)(C)O2 (racemic)	fulfilled
COc1ccc2c(c1)OC(C)(C)C=C2	fulfilled
COc1ccc2c(c1)OC(C)(C)C(CC(=O)O)=C2	not fulfilled
COc1ccc2c(c1)OC(C)(C)[C@@]1(I)CC(=O)O[C@@H]21 (racemic)	fulfilled
COc1cc2c(cc1OC)OC(C)(C)C=C2	fulfilled
COc1ccc2c(c1)OC(C)(C)C1=C2OC(=O)C1	not fulfilled
COc1cc2c(cc1OC)C1=C(CC(=O)O1)C(C)(C)O2	not fulfilled

###

system: Sitophilus granarius; test: Antifeeding activity against Sitophilus granarius (granary weevil) adults in compound treated wheat wafer disk assessed as relative coefficient of deterrence by feeding deterrent activity test; type: functional
Some molecules, each annotated with its measured FDI.
result_type: FDI

molecule	tgt	result_type	assay_value
COc1ccc2c(c1)OC(C)(C)C=C2	Sitophilus granarius	FDI	83.8
COc1cc2c(cc1OC)[C@@H]1OC(=O)C[C@]1(I)C(C)(C)O2 (racemic)	Sitophilus granarius	FDI	89.5
COc1ccc2c(c1)OC(C)(C)C1=C2OC(=O)C1	Sitophilus granarius	FDI	94.4
COc1cc2c(cc1OC)C1=C(CC(=O)O1)C(C)(C)O2	Sitophilus granarius	FDI	91.6
COc1ccc2c(c1)OC(C)(C)[C@@]1(I)CC(=O)O[C@@H]21 (racemic)	Sitophilus granarius	FDI	93.4
COc1ccc2c(c1)OC(C)(C)C(CC(=O)O)=C2	Sitophilus granarius	FDI	95.7
COc1cc2c(cc1OC)OC(C)(C)C=C2	Sitophilus granarius	FDI	94.2
COc1cc2c(cc1OC)OC(C)(C)C(CC(=O)O)=C2	Sitophilus granarius	FDI	88.9

###

Some molecules, each annotated with its measured FDI.
system: Tribolium confusum; assay: Antifeeding activity against Tribolium confusum (confused flour beetle) larvaes in compound treated wheat wafer disk assessed as absolute coefficient of deterrence by feeding deterrent activity test; assay type: functional

molecule	FDI
COc1cc2c(cc1OC)[C@@H]1OC(=O)C[C@]1(I)C(C)(C)O2 (racemic)	54.2
COc1cc2c(cc1OC)OC(C)(C)C(CC(=O)O)=C2	40.5
COc1ccc2c(c1)OC(C)(C)C(CC(=O)O)=C2	-6.2
COc1ccc2c(c1)OC(C)(C)C1=C2OC(=O)C1	-6.7
